The values you see were collected from paper PMC12662848.

- method.description: Venetoclax plasma PK in combination with enzalutamide (LC–MS/MS, non-compartmental)
- Assay type: in vivo, human
- experimental.setup: male, human, plasma, oral, 800 mg, venetoclax 800 mg (N = 4) with enzalutamide 160 mg/d; plasma; geometric mean (geometric SD); read-out: D1 Cmax
quantity.measured: Cmax (ng/mL)
Please reply with the bare figure in ng/mL and do not write the unit itself.

**Q:** For the compound CC1(C)CCC(CN2CCN(c3ccc(C(=O)NS(=O)(=O)c4ccc(NCC5CCOCC5)c([N+](=O)[O-])c4)c(Oc4cnc5[nH]ccc5c4)c3)CC2)=C(c2ccc(Cl)cc2)C1 , report Cmax.
**A:** 979
